Reference source for all entries: patent US8951962B2

Assignment: determine reported EC50 for the given substances.
- MEASUREMENT TARGET: GLP-1 receptor (RINm5f membranes) (Rattus norvegicus, UniProt P32301)
- Construct: host or cells: RINm5f cells (membranes/homogenate)
- Sequence (P32301 22-463): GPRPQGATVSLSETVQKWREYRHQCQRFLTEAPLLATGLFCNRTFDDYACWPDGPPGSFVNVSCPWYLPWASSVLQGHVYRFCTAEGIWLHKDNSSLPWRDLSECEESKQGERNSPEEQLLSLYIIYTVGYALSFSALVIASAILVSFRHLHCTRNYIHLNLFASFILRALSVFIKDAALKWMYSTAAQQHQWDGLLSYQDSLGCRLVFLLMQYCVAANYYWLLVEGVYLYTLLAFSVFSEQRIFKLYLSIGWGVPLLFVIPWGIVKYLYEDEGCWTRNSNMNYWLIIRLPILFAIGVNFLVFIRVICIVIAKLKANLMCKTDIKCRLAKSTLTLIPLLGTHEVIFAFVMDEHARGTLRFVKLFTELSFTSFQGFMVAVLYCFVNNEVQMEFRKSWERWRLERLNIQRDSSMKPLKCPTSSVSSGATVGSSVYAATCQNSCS
- PROTOCOL DESCRIPTION: Cyclase activation study (GLP-1 Cyclase), cAMP SPA immunoassay on RINm5f membranes
- Assay type: biochemical
- SETTINGS: read-out: GLP-1 Cyclase EC50, 20 minutes at 37° C., supernatant cAMP
No end group written: not given here. PEG = not defined here
Numbers only, in nM.

HGEGTFTSDLSRQMEEEAVRLFIEWLRNGK(PEG)PSSGAPPPS-NH2 [230] (not fully specified; PEG linker; C-terminal amide) [compound 230] ... 157
HGEGTFTSDLSRQMEEEAVRLFIEWLRNGK(PEG)PSSGAPPPS-NH2 [224] (not fully specified; PEG linker; C-terminal amide) [compound 224] ... 3.22

Using the record for HGEGTFTSDLSRQMEEAVRLFIEWLRNGGPSSGAPPPK(PEG)-NH2 (reading uncertain; also: printed as HGEGTFTSDLSRQMEEAVRLFIEWLRNGGPSSGAPPPK(PEG)-NH2) [compound 229] , report its EC50.
60.4
